- PROTOCOL DETAILS: Log P by HPLC on reversed phase columns (EEC directive 79/831 Annex V.A8)
- Format: physicochemical
- MEASUREMENT CONDITIONS: method [a]: LC-UV, acidic range, 0.1% formic acid in water and acetonitrile
Recorded LogP, one value per entry.

Some entries whose results are on file:
N#Cc1c(C(=O)O)sc(Cl)c1Br | 1.70^[a]
CCOC(=O)c1cc(Br)c(Cl)s1 | 4.21^[a]
O=C(NC1CCOC1=O)c1cc(Br)c(Cl)s1 (stereo not drawn) | 2.14^[a]
COC(=O)c1sc(C#N)c(Br)c1Br | 3.07^[a]
O=C(NC1CCSC1=O)c1sc(Br)c(Br)c1F (stereo not drawn) | 2.84^[a]
COC(=O)c1sc(C#N)c(Cl)c1Cl | 2.99^[a]
CCOC(=O)c1sc(I)c(Br)c1C | 5.03^[a]
O=C(O)c1cc(F)c(Br)s1 | 1.02^[a]
O=C(O)c1cc(Br)c(F)s1 | 1.94^[a]
O=C(N[C@H]1CCCNC1=O)c1sc(Br)c(Br)c1Cl | 2.31^[a]

## Input Which LogP is reported for this compound? "O=C(O)c1sc(I)c(Cl)c1Cl"
## Output 3.01^[a]

## Input Which LogP is reported for this compound? "COC(=O)c1cc(C#N)c(Cl)s1"
## Output 2.44^[a]

## Input Which LogP is reported for this compound? "O=C(N[C@H]1CCSC1=O)c1sc(Br)c(Br)c1Cl"
## Output 3.24^[a]

## Input Which LogP is reported for this compound? "Cc1c(C(=O)N[C@H]2CCSC2=O)sc(C#N)c1Br"
## Output 2.39^[a]

## Input Which LogP is reported for this compound? "COC(=O)c1sc(Cl)c(Br)c1C#N"
## Output 2.99^[a]

## Input Which LogP is reported for this compound? Cc1c(C(=O)NC2CCSC2=O)sc(Br)c1Cl (stereo not drawn)
## Output 3.46^[a]

## Input Which LogP is reported for this compound? "CCOC(=O)c1sc(Cl)c(Br)c1F"
## Output 4.08^[a]

###

- PROTOCOL DETAILS: Log P by HPLC on reversed phase columns (EEC directive 79/831 Annex V.A8)
- Assay type: physicochemical
- MEASUREMENT CONDITIONS: method [a]
MEASURED ENDPOINT: LogP

Some entries whose results are on file:
C#CCOC(=O)CNC(=O)c1sc(Br)c(Br)c1F [1.0855] | 2.87^[a]
CCCCOC(=O)CNC(=O)c1sc(Br)c(Br)c1F [1.0860] | 3.79^[a]
CCOC(=O)C(C)NC(=O)c1sc(Br)c(Br)c1Cl (centres unmarked) [1.0824] | 4.01^[a]
C=CCOC(=O)CNC(=O)c1sc(Br)c(Br)c1F [1.0857] | 3.13^[a]
COC(=O)CNC(=O)c1sc(Br)c(Br)c1C#N [1.0798] | 2.24^[a]
CCOC(=O)C(CSC(C)=O)NC(=O)c1sc(Br)c(Br)c1F (centres unmarked) [1.0554] | 3.18^[a]
N#CCCOC(=O)CNC(=O)c1sc(Br)c(Br)c1F [1.0858] | 2.48^[a]
CCOC(=O)[C@H](CO)NC(=O)c1sc(Br)c(Br)c1F [1.0832] | 2.54^[a]

## Input Which LogP is reported for this compound? CC(C)(C)OC(=O)C(NC(=O)c1sc(Cl)c(Cl)c1Br)C1CC1 (centres unmarked) [1.0902]
## Output 5.41^[a]

## Input Which LogP is reported for this compound? O=C(NC1(C(=O)OC2CCC2)CC1)c1cc(Cl)c(Br)s1 [1.0599]
## Output 3.43^[a]

## Input Which LogP is reported for this compound? CCOC(=O)CNC(=O)c1cc(Cl)c(F)s1 [1.0899]
## Output 2.23^[a]

###

Recorded LogP, one value per entry.
- PROTOCOL DETAILS: Log P by HPLC on reversed phase columns (EEC directive 79/831 Annex V.A8)
- Format: physicochemical
- MEASUREMENT CONDITIONS: LogP method [a]; compounds of formula (I), Table 1.1
- Experimental: In the above tables, measurement of Log P values was performed according to EEC directive 79/831 Annex V.A8 by HPLC (High Performance Liquid Chromatography) on reversed phase columns with the following methods: • ^[a] […] Lambda-max-values were determined using UV-spectra from 200 nm to 400 nm and the peak values of the chromatographic signals.

Some entries whose results are on file:
COC(=O)C(CC(F)F)NC(=O)c1sc(Br)c(Br)c1F (stereo not drawn) | 3.23^[a]
CCOC(=O)C(CC(C)C)NC(=O)c1cc(F)c(Br)s1 (stereo not drawn) | 3.80^[a]
CCOC(=O)C(NC(=O)c1cc(Cl)c(Br)s1)C(C)C (stereo not drawn) | 3.85^[a]
CCOC(=O)C1(NC(=O)c2cc(Cl)c(Br)s2)CCC1 | 3.29^[a]
COC(=O)C(CCSC)NC(=O)c1sc(Br)c(Br)c1F (stereo not drawn) | 3.57^[a]
CCOC(=O)C1(NC(=O)C2(NC(=O)c3cc(I)c(I)s3)CC2)CC1 | 2.59^[a]
CCOC(=O)CNC(=O)c1cc(C)c(Cl)s1 | 2.33^[a]
N#CCNC(=O)c1sc(Br)c(Cl)c1F | 2.33^[a]
CCOC(=O)C(NC(=O)c1sc(Br)c(Cl)c1F)C(C)C (stereo not drawn) | 4.38^[a]
COC(=O)C(C)(C)NC(=O)c1sc(C(F)F)c(Br)c1Br | 3.32^[a]

Proceeding to the next compound to report its LogP.
## Input Which LogP is reported for this compound? COC(=O)C(Cc1ccccc1)NC(=S)c1sc(Br)c(Br)c1F (stereo not drawn)
## Output 5.32^[a]

###

Recorded LogP, one value per entry.
- PROTOCOL DETAILS: Log P by HPLC on reversed phase columns (EEC directive 79/831 Annex V.A8)
- Type: physicochemical
- MEASUREMENT CONDITIONS: method [a]: LC-UV, acidic range, 0.1% formic acid in water and acetonitrile

Some entries whose results are on file:
N#Cc1c(Br)sc(C(=O)O)c1Br | 1.73^[a]
COC(=O)c1sc(F)c(Br)c1Cl | 3.44^[a]

## Input Which LogP is reported for this molecule? "Cc1c(C(=O)N[C@H]2CCOC2=O)sc(Cl)c1Br"
## Output 2.45^[a]

## Input Which LogP is reported for this molecule? "COC(=O)c1sc(C#N)c(Br)c1Cl"
## Output 3.02^[a]

## Input Which LogP is reported for this molecule? "N#Cc1c(C(=O)O)sc(Br)c1Br"
## Output 1.71^[a]

## Input Which LogP is reported for this molecule? "N#Cc1sc(C(=O)O)c(Cl)c1Cl"
## Output 1.51^[a]

## Input Which LogP is reported for this molecule? "COC(=O)c1sc(C)c(Cl)c1Cl"
## Output 3.49^[a]

## Input Which LogP is reported for this molecule? "O=C(N[C@H]1CCOC1=O)c1sc(Br)c(Br)c1Cl"
## Output 2.62^[a]

## Input Which LogP is reported for this molecule? "CCOC(=O)c1sc(Cl)c(C#N)c1Br"
## Output 3.46^[a]

## Input Which LogP is reported for this molecule? "CCOC(=O)c1sc(Cl)c(C)c1Cl"
## Output 4.59^[a]

###

- PROTOCOL DETAILS: Log P by HPLC on reversed phase columns (EEC directive 79/831 Annex V.A8)
- Format: physicochemical
- MEASUREMENT CONDITIONS: method marked [a]
MEASURED ENDPOINT: LogP

CCOC(=O)CNC(=O)c1sc(Br)c(Cl)c1Br | 3.40^[a]

## Input Which LogP is reported for this compound? CCOC(=O)C(CSC)NC(=O)c1sc(Br)c(Br)c1C#N (stereo not drawn)
## Output 3.40^[a]

## Input Which LogP is reported for this compound? COC(=O)C(NC(=O)c1sc(Cl)c(C#N)c1Br)C1CC1 (stereo not drawn)
## Output 3.00^[a]

###

- PROTOCOL DETAILS: Log P by HPLC on reversed phase columns (EEC directive 79/831 Annex V.A8)
- Assay type: physicochemical
- MEASUREMENT CONDITIONS: method [a]: LC-UV, acidic range, 0.1% formic acid in water and acetonitrile
Recorded LogP, one value per entry.

## Input Which LogP is reported for this compound? COC(=O)c1sc(Br)c(C#N)c1Cl [II.021]
## Output 2.87^[a]

## Input Which LogP is reported for this compound? CCOC(=O)c1cc(Br)c(C(F)(F)F)s1 [II.082]
## Output 4.40^[a]

## Input Which LogP is reported for this compound? O=C(NC1CCCCNC1=O)c1sc(Br)c(Br)c1Cl (stereo not drawn) [I.0957]
## Output 2.99^[a]

## Input Which LogP is reported for this compound? O=C(O)c1sc(F)c(Br)c1Cl [II.076]
## Output 2.19^[a]

## Input Which LogP is reported for this compound? N#CC1(NC(=O)c2sc(Br)c(Br)c2F)CCC(c2ccccc2)CC1 (stereo not drawn) [I.1009]
## Output 4.78^[a]
